- Test Target: IN-RNA binding (His6 tagged IN, HIV-1 TAR RNA) (Human immunodeficiency virus type 1 group M subtype B, UniProt P12497)
Parameter Measured: IC50 (nM)
Return type: number; implicit unit nM.

IC50 reported for this compound Cc1nc2c(c(C)c(C)n2Cc2cnn(C)c2)c(-c2ccc(Cl)cc2)c1[C@H](OC(C)(C)C)C(=O)O : 20

====

- Method Description: In vivo pharmacokinetics in beagle dogs
- Experimental Setup: male, plasma, po, Dog, 2 mg/kg (p.o)
Parameter Measured: half-life (h)
Return type: number; implicit unit h.

half-life reported for this compound Cc1nc2c(c(C)c(C)n2Cc2cnn(C)c2)c(-c2ccc(Cl)cc2)c1[C@H](OC(C)(C)C)C(=O)O [STP0404] : 6.9
